Data credit: paper PMC5750218

# measurementParameters: 37 °C, 20 µM
Property: % compound remaining after incubation in 50% human plasma, 0h; scope: individual compounds
metricName: % compound remaining after incubation in 50% human plasma, 0h (%)

compound	unitOfMeasure	resultValue
CCCCCCCCCCC(=O)N[C@@H](CCCCN)C(=O)N[C@@H](CCCCN)C(=O)N[C@@H](CCCCN)C(=O)N[C@@H](CCCCNC(=O)[C@H]1NC(=O)[C@H]2NC(=O)[C@H](NC(=O)[C@@H]3NC(=O)[C@H](CC(N)=O)NC(=O)[C@H](NC(=O)[C@@H](CC(C)C)NC)[C@H](O)c4ccc(c(Cl)c4)Oc4cc3cc(c4O[C@@H]3O[C@H](CO)[C@@H](O)[C@H](O)[C@H]3O[C@H]3C[C@](C)(N)[C@H](O)[C@H](C)O3)Oc3ccc(cc3Cl)[C@H]2O)c2ccc(O)c(c2)-c2c(O)cc(O)cc21)C(=O)O [Compound 18, nC10CO-KKK-K(Vancomycin)-OH]	%	100
CCCCCCCCCCCCCC(=O)NCC(=O)N[C@@H](CO)C(=O)N[C@@H](CCCCN)C(=O)N[C@@H](CCCCN)C(=O)N[C@@H](CCCCN)C(=O)N[C@@H](CSSCCNC(=O)[C@H]1NC(=O)[C@H]2NC(=O)[C@H](NC(=O)[C@@H]3NC(=O)[C@H](CC(N)=O)NC(=O)[C@H](NC(=O)[C@@H](CC(C)C)NC)[C@H](O)c4ccc(c(Cl)c4)Oc4cc3cc(c4O[C@@H]3O[C@H](CO)[C@@H](O)[C@H](O)[C@H]3O[C@H]3C[C@](C)(N)[C@H](O)[C@H](C)O3)Oc3ccc(cc3Cl)[C@H]2O)c2ccc(O)c(c2)-c2c(O)cc(O)cc21)C(=O)O	%	100
CN[C@H](CC(C)C)C(=O)N[C@H]1C(=O)N[C@@H](CC(N)=O)C(=O)N[C@H]2C(=O)N[C@H]3C(=O)N[C@H](C(=O)N[C@H](C(=O)O)c4cc(O)cc(O)c4-c4cc3ccc4O)[C@H](O)c3ccc(c(Cl)c3)Oc3cc2cc(c3O[C@@H]2O[C@H](CO)[C@@H](O)[C@H](O)[C@H]2O[C@H]2C[C@](C)(N)[C@H](O)[C@H](C)O2)Oc2ccc(cc2Cl)[C@H]1O	%	100
CCCCCCCCCCC(=O)N[C@@H](CCCCNC(=O)[C@H]1NC(=O)[C@H]2NC(=O)[C@H](NC(=O)[C@@H]3NC(=O)[C@H](CC(N)=O)NC(=O)[C@H](NC(=O)[C@@H](CC(C)C)NC)[C@H](O)c4ccc(c(Cl)c4)Oc4cc3cc(c4O[C@@H]3O[C@H](CO)[C@@H](O)[C@H](O)[C@H]3O[C@H]3C[C@](C)(N)[C@H](O)[C@H](C)O3)Oc3ccc(cc3Cl)[C@H]2O)c2ccc(O)c(c2)-c2c(O)cc(O)cc21)C(=O)O [Compound 20, nC10CO-K(Vancomycin)-OH]	%	100

###

# testName: Haemolysis assay
# Format: cell-based
# measurementParameters: human, % Human Whole Blood Haemolysis

smilesStructure	unitOfMeasure	hemolysis at 3 h, 800 µg mL-1
CCCCCCCCCC(=O)N[C@@H](Cc1c[nH]c2ccccc12)C(=O)N[C@H](CC(N)=O)C(=O)N[C@@H](CC(=O)O)C(=O)N[C@@H]1C(=O)NCC(=O)N[C@@H](CCCN)C(=O)N[C@@H](CC(=O)O)C(=O)N[C@H](C)C(=O)N[C@@H](CC(=O)O)C(=O)NCC(=O)N[C@H](CO)C(=O)N[C@@H]([C@H](C)CC(=O)O)C(=O)N[C@@H](CC(=O)c2ccccc2N)C(=O)O[C@@H]1C	%	0.3
